Molecular target: cyclic nucleotide phosphodiesterase 4 from guinea-pig hearts
Experiment: Inhibition of cyclic nucleotide phosphodiesterase 4 (96-well microtiter plates, Verghese et al.)
Conditions: PDE 4 from guinea-pig hearts; read-out: PDE4 IC50
measuredParameter: log10 of IC50 (log10 of the value in nM)
Each number you see is log10 of IC50, and the unit inside the log is nM.

CC(C)Cc1nnc2c3cccnc3c(-c3ccccc3)nn12 | 2.48
Fc1cccc(-c2nn3c(CC4CCCC4)nnc3c3cccnc23)c1 | 2.85
O=[N+]([O-])c1cccc(-c2nn3c(CC4CCC4)nnc3c3cccnc23)c1 | 2.30
c1ccc(-c2nn3c(C4CC4)nnc3c3cccnc23)cc1 | 3.48

// lookup log10 of IC50 for CC(C)Cc1nnc2c3cccnc3c(-c3cccc([N+](=O)[O-])c3)nn12
1.60

Also, Clc1cccc(-c2nn3c(CC4CC4)nnc3c3cccnc23)c1 please.
2.00

Also, CC(C)Cc1nnc2c3cccnc3c(-c3cccc(Cl)c3)nn12 please.
2.30

====

Target: cyclic nucleotide phosphodiesterase 4 from guinea-pig hearts
Test: Inhibition of cyclic nucleotide phosphodiesterase 4 (96-well microtiter plates, Verghese et al.)
Conditions: PDE 4 from guinea-pig hearts; read-out: PDE4 IC50
// values below are reported pIC50
Note: pIC50 values are expressed as the negative base-10 logarithm of concentration in M.

Solved entries:
CC(C)Cc1nnc2c3ccccc3c(-c3ccccc3)nn12 [Compound A, reference compound] | 5.00
CC(C)Cc1nnc2c3cccnc3c(-c3ccc(F)cc3)nn12 | 6.70
Clc1cccc(-c2nn3c(CC4CCC4)nnc3c3cccnc23)c1 | 5.70
CCCCc1nnc2c3cccnc3c(-c3ccccc3)nn12 | 5.70

// lookup pIC50 for O=[N+]([O-])c1cccc(-c2nn3c(CC4CC4)nnc3c3cccnc23)c1
6.15

====

measuredParameter: melting point (°C)
Please give a number only; it is taken to be in °C.

Solved entries:
Clc1cccc(-c2nn3c(CC4CCC4)nnc3c3cccnc23)c1 | 156
Clc1cccc(-c2nn3c(CC4CC4)nnc3c3cccnc23)c1 | 136
O=[N+]([O-])c1cccc(-c2nn3c(CC4CC4)nnc3c3cccnc23)c1 | 164

// lookup melting point for O=[N+]([O-])c1cccc(-c2nn3c(CC4CCC4)nnc3c3cccnc23)c1
150

Also, c1ccc(-c2nn3c(C4CC4)nnc3c3cccnc23)cc1 please.
244.3

Also, CC(C)Cc1nnc2c3cccnc3c(-c3ccc(F)cc3)nn12 please.
135

Also, CCCCc1nnc2c3cccnc3c(-c3ccccc3)nn12 please.
162.9

Also, CC(C)Cc1nnc2c3cccnc3c(-c3ccccc3)nn12 please.
179.7

Also, CC(C)(C)c1nnc2c3cccnc3c(-c3ccccc3)nn12 please.
188.1

Also, CC(C)Cc1nnc2c3cccnc3c(-c3cccc([N+](=O)[O-])c3)nn12 please.
178

Also, Fc1cccc(-c2nn3c(CC4CCCC4)nnc3c3cccnc23)c1 please.
145

Also, CC(C)Cc1nnc2c3cccnc3c(-c3cccc(Cl)c3)nn12 please.
113
